procedure.details: chemical genetic growth profiling, strain panel (AID 1159580);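 note: tested at 20 µM; growth read once vehicle control cultures reached saturation at 30 °C; 1 = growth at the plate median or of vehicle wells; lower values mean less growth of the strain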
run.parameters: S. cerevisiae deletion strains, growth OD, locus YOR270C, strain vph1, hits give low values
The whole screen tested about 5,500 compounds, of which about 2,000 (36%) were called active. Another 18% or so got no clear call; they are omitted. The list shows a part of the results.
normalized growth values by entry
property.measured: normalized growth

{"compound": "CC1C[C@H]2CC(=O)[C@H]3CCCN4CCC[C@H]2[C@]34C1 (some centres undefined)", "measured.result": 1.05}
{"compound": "CC1(C)O[C@H]2[C@H](O)C[C@](O)(C(N)=O)C[C@H]2O1", "measured.result": 1.06}
{"compound": "COc1c(OC)c2occc2c2oc(=O)ccc12", "measured.result": 0.857}
{"compound": "CC[C@H](C)C(=O)O[C@H]1C[C@@H](C)C=C2C=C[C@H](C)[C@H](CC[C@@H]3C[C@@H](O)CC(=O)O3)[C@H]21", "measured.result": 0.881}
{"compound": "CCC(C)(C)C(=O)O[C@H]1C[C@@H](C)C=C2C=C[C@H](C)[C@H](CC[C@@H]3C[C@@H](O)CC(=O)O3)[C@H]21", "measured.result": 0.57}
{"compound": "CCNC(=O)CC[C@H](N)C(=O)O", "measured.result": 1.04}
{"compound": "OCCOCCN1CCN(C2=Nc3ccccc3Sc3ccccc32)CC1", "measured.result": 1}
{"compound": "CC[C@H](C)C(=O)O[C@H]1CCC=C2C=C[C@H](C)C(CCC3C[C@@H](O)CC(=O)O3)[C@H]21 (some centres undefined)", "measured.result": 0.999}
{"compound": "CCC(C)C(=O)O[C@H]1C[C@H](O)C=C2C=C[C@H](C)[C@H](CC[C@@H](O)C[C@@H](O)CC(=O)O)C21 (some centres undefined)", "measured.result": 0.946}

---

normalized growth values by entry
procedure.details: chemical genetic growth profiling, strain panel (AID 1159580);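 note: tested at 20 µM; growth read once vehicle control cultures reached saturation at 30 °C; 1 = growth at the plate median or of vehicle wells; lower values mean less growth of the strain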
run.parameters: S. cerevisiae deletion strains, growth OD, locus YER002W, strain NOP16, hits give low values
Out of some 5,500 compounds screened, about 2,000 (36%) were called active. Roughly 18% stayed inconclusive and do not appear here. The list shows a part of the results.

{"compound": "COC(=O)C1C2CC3c4[nH]c5cc(OC)ccc5c4CCN3CC2CC(OC(=O)c2cc(OC)c(OC)c(OC)c2)C1OC (stereo unspecified)", "normalized growth": 0.99}
{"compound": "Cc1c(CC(C)(C)C(=O)O)n(Cc2ccc(Cl)cc2)c2ccc(F)cc12", "normalized growth": 0.978}
{"compound": "O=C(O)Cc1ccc(O)c(O)c1", "normalized growth": 0.996}
{"compound": "O=c1[nH]oc2c1CCNC2", "normalized growth": 1}
{"compound": "N[C@H](CO)C(=O)O", "normalized growth": 0.986}
{"compound": "O=C(O)Cc1c[nH]c2ccc(O)cc12", "normalized growth": 0.974}
{"compound": "CC(C(O)c1ccc(O)cc1)N1CCC(Cc2ccccc2)CC1 (stereo unspecified)", "normalized growth": 1.01}
{"compound": "CC(/C=C/c1cccc(Oc2ccc(F)cc2)c1)N(O)C(N)=O (stereo unspecified)", "normalized growth": 1.01}
{"compound": "O=C(C1CCCCC1)N1CC(=O)N2CCc3ccccc3C2C1 (stereo unspecified)", "normalized growth": 1.01}
{"compound": "CCCN1CCC[C@H](c2cccc(O)c2)C1", "normalized growth": 0.988}
{"compound": "NC(CO)C(=O)NNCc1ccc(O)c(O)c1O (stereo unspecified)", "normalized growth": 1}
{"compound": "CN1CCc2cccc(Cl)c2CC1", "normalized growth": 1}
{"compound": "COc1nc(C)nc(Cl)c1NC1=NCCN1", "normalized growth": 0.987}
{"compound": "CCN1C[C@]2(C)CC[C@H](O)[C@@]34C5C[C@@H]6[C@@H](OC)C[C@@](O)(C5[C@H]6O)[C@@H](CC23)C14 (stereo partly specified)", "normalized growth": 1.01}
{"compound": "CC(C)(C)C1(O)CCN2CC3c4ccccc4CCc4cccc(c43)C2C1 (stereo unspecified)", "normalized growth": 0.993}
{"compound": "CCNC(=O)[C@H]1O[C@@H](n2cnc3c(N)ncnc32)C(O)[C@H]1O (stereo partly specified)", "normalized growth": 1.01}
{"compound": "CC1(C)NC(=O)N(c2ccc([N+](=O)[O-])c(C(F)(F)F)c2)C1=O", "normalized growth": 0.996}
{"compound": "CC(C)NNC(=O)c1ccncc1", "normalized growth": 1.01}
{"compound": "COC(=O)[C@@H](N)Cc1ccc(O)c(O)c1", "normalized growth": 1}
{"compound": "C=CC(N)CCC(=O)O (stereo unspecified)", "normalized growth": 0.993}
{"compound": "Cn1c(=O)c2[nH]cnc2n(C)c1=O", "normalized growth": 0.993}
{"compound": "Clc1cccc(Cl)c1NC1=NCCN1", "normalized growth": 0.99}
{"compound": "Cc1ccc([N+](=O)[O-])cc1S(=O)(=O)N(C)C", "normalized growth": 1}
{"compound": "NC/C=C\\C(=O)O", "normalized growth": 1.01}
{"compound": "C[C@@H](CN1CCC(Cc2ccccc2)CC1)[C@@H](O)c1ccc(O)cc1", "normalized growth": 1.01}
{"compound": "CCCN(CCC)C1CCc2cccc(O)c2C1 (stereo unspecified)", "normalized growth": 1}

---

procedure.details: chemical genetic growth profiling, strain panel (AID 1159580);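 note: tested at 20 µM; growth read once vehicle control cultures reached saturation at 30 °C; 1 = growth at the plate median or of vehicle wells; lower values mean less growth of the strain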
run.parameters: S. cerevisiae deletion strains, growth OD, locus YDR101C, strain arx1, hits give low values
The whole screen tested about 5,500 compounds, of which about 2,000 (36%) were called active. Roughly 18% stayed inconclusive and do not appear here. Some of the results follow.
normalized growth values by entry
property.measured: normalized growth

{"compound": "COc1ccc2c(c1O)OCC1c3cc4c(cc3OC21)OCO4 (stereo unspecified)", "measured.result": 0.986}
{"compound": "COc1ccc([C@H]2Oc3cc(OC)cc(OC)c3C[C@H]2O)cc1", "measured.result": 0.983}
{"compound": "O=S1OCC2C(CO1)C1(Cl)C(Cl)=C(Cl)C2(Cl)C1(Cl)Cl (stereo unspecified)", "measured.result": 0.992}
{"compound": "CC(=O)N[C@@H](CS)C(=O)O", "measured.result": 1.01}
{"compound": "COc1ccc2c(c1)O[C@H]1c3ccc(OC)cc3OC[C@@H]21", "measured.result": 0.911}
{"compound": "COc1c2ccoc2c(OC)c2oc(=O)ccc12", "measured.result": 0.904}
{"compound": "O=C(O)c1ccccc1-c1c2cc(Br)c(=O)cc-2oc2[c]([Hg])c(O)c(Br)cc12", "measured.result": 1.01}
{"compound": "COc1ccc2c(c1)CCC(c1ccccc1)=C2c1ccc(OCCN2CCCC2)cc1", "measured.result": 0.675}
{"compound": "COc1c(OC)c2occc2c2oc(=O)ccc12", "measured.result": 0.927}
{"compound": "O=C(O)CN(CC(=O)O)Cc1cc2c(-c3ccccc3C(=O)O)c3cc(CN(CC(=O)O)CC(=O)O)c(=O)cc-3oc2cc1O", "measured.result": 1.01}
{"compound": "Oc1ccc2c(c1)OCC1c3cc4c(cc3OC21)OCO4 (stereo unspecified)", "measured.result": 0.942}

---

procedure.details: chemical genetic growth profiling, strain panel (AID 1159580);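 note: tested at 20 µM; growth read once vehicle control cultures reached saturation at 30 °C; 1 = growth at the plate median or of vehicle wells; lower values mean less growth of the strain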
run.parameters: S. cerevisiae deletion strains, growth OD, locus YCL011C, strain gbp2, hits give low values
Among all 5,500 compounds or so, about 2,000 (36%) were called active. Another 18% or so got no clear call; they are omitted. The list shows a part of the results.

{"compound": "NS(=O)(=O)c1cc2c(cc1Cl)NC(C(Cl)Cl)NS2(=O)=O (stereo not given)", "normalized growth": 0.96}
{"compound": "CCCCOC(=O)c1ccccc1C(=O)OCCCC", "normalized growth": 0.979}
{"compound": "CCCOc1ccc(C(=O)OCCN(CC)CC)cc1N", "normalized growth": 1}
{"compound": "O=C(O)CN1C(=O)c2cccc3cccc(c23)C1=O", "normalized growth": 0.975}
{"compound": "CCCCC(=O)Oc1ccccc1C(=O)O", "normalized growth": 0.979}
